Target: Protein tyrosine phosphatase 1B (PTP1B) (Homo sapiens, UniProt P18031)
Sequence (P18031 1-435): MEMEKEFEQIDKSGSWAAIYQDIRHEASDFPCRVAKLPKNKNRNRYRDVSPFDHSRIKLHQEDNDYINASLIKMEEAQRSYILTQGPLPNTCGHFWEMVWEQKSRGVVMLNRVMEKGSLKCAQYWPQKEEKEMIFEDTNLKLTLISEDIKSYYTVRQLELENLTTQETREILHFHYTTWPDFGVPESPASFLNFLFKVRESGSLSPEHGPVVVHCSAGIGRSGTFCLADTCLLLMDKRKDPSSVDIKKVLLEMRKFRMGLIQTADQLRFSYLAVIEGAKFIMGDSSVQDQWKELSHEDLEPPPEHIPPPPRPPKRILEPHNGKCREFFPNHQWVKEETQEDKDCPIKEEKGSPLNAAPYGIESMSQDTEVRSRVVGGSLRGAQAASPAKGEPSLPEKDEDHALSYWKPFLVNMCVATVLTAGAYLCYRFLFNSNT
Test: pNPP hydrolysis assay ([…] nm) with human recombinant PTP1B; Dixon and Lineweaver-Burk kinetics
observable: IC50 (µM)
Reply numerically in µM, unit not repeated.

query: Record request: IC50 value, item "CC(C)=CC[C@@H](O)C1=CC(=O)c2c(O)ccc(O)c2C1=O"
result: 15.5

The measurements presented in this section are drawn from paper PMC8271486.
